ASSAYED SYSTEM: Hfq WT (Escherichia coli, UniProt P0A6X3 1-102)
ASSAY PROTOCOL: ITC; no Mg2+ listed; N 1.31 RNA/hexamer; ITC: 20 mM Tris-HCl pH 7.5, 100 mM NaCl, 20 mM KCl, 30°C; plus 5 mM MgCl2 for U6; Hfq hexamer 10-18 µM in cell
ASSAY CONDITIONS: protein: recombinant; chain copies: 6; single strand
OBSERVABLE: Kd (nM)
The reply should contain only the number, in nM.

Q: Item AAAAAAAAAAAAAAAAA (ssRNA) [A17] has what recorded Kd?
A: 51.5
